- SYSTEM TESTED: Syk catalytic domain (aa 356-635 with a C-terminal His-tag) (Homo sapiens, UniProt P43405)
- Construct: His-tag (C); made in house
- TEST DESCRIPTION: In vitro Syk kinase activity measured by trFRET, Syk catalytic domain
- Type: biochemical
pIC50: −log10 of the molar value.
READOUT LABEL: pIC50

compound=Cn1ncc2cnc3[nH]c(-c4cccn4CC(=O)O)cc3c21 measured_result="< 5.00"
compound=COc1cccc(-c2nc(C3CCCCC3)n3c2cnc2[nH]ccc23)c1 measured_result="5.00 to 6.00"
compound="COc1ccc(-c2nc(CN3CCNC(CO)C3)n3c2cnc2[nH]ccc23)cc1 (centres unmarked)" measured_result="6.00 to 7.00"
compound=CC(=O)c1cc(-c2ncn3c2cnc2[nH]ccc23)ccn1 measured_result="6.00 to 7.00"

Can you share its pIC50? I mean this compound: CC(C)(O)c1ccc(-c2nc(C3CC3)n3c2cnc2[nH]ccc23)cc1
> 7.00

I have this compound here, Cc1nc(-c2ccc(CC(C)(C)O)cc2)c2cnc3[nH]ccc3n12 , and I need its recorded pIC50.
6.00 to 7.00

Recorded pIC50 for OC1(c2ccc(-c3ncn4c3cnc3[nH]ccc34)cc2)CCNCC1 , please?
> 7.00

Need pIC50, item CC1CN(Cc2nc(-c3ccc(C(C)(C)O)cc3)c3cnc4[nH]ccc4n23)CCN1 (centres unmarked)
6.00 to 7.00

So what's the measured pIC50 for this one? CC(=O)N1CCC[C@H]1c1nc(-c2ccc(C(C)(C)O)cc2)c2cnc3[nH]ccc3n12
5.00 to 6.00

Report pIC50 for CN(C)S(=O)(=O)c1ccc(-c2nc(C3CCCCC3)n3c2cnc2[nH]ccc23)cc1 please.
6.00 to 7.00

What value of measured pIC50 is listed for COc1ccc(-c2nc(C)n3c2cnc2[nH]ccc23)cc1Cl ?
6.00 to 7.00

Field request: pIC50 | item: O=S(=O)(NCCO)c1cccc(-c2nc(C3CCCCC3)n3c2cnc2[nH]ccc23)c1
6.00 to 7.00

May I ask what pIC50 has been recorded for CC(C)(O)c1ccc(-c2nc(CN3CCNCC3)n3c2cnc2[nH]ccc23)cc1 ?
6.00 to 7.00

Reported pIC50, compound CC(=O)c1ccc(-c2nc(C)n3c2cnc2[nH]ccc23)s1 : ____
6.00 to 7.00

Which pIC50 reading was recorded for the compound COc1cnc2c(c1)c(-c1cc3c(ncc4cnn(C)c43)[nH]1)cn2C ?
> 7.00

# input compound: COc1cc(-c2ncn3c2cnc2[nH]ccc23)ccn1 ; wanted: its pIC50
6.00 to 7.00

Report pIC50 for CC(=O)N1CCC[C@@H]1c1nc(-c2ccc(C(C)(C)O)cc2)c2cnc3[nH]ccc3n12 please.
6.00 to 7.00
